Reference for the values: the NIST ThermoML archive (doi:10.1021/acs.jced.5b00077)

Conditions: 318.15 K, Ring tensiometer
hey, just use condition met if measured surface tension liquid-gas is less than 40 mN/m, otherwise condition not met

Record excerpt, results attached:
{"columns": ["compound", "classification"],
 "data": [
  ["CCC[NH3+].O=C[O-] [propylammonium formate]", "condition met"],
  ["O=C[O-].[NH3+]CCCO [3-hydroxypropylammonium formate]", "condition not met"],
  ["CC(=O)[O-].[NH3+]CCCO [3-hydroxypropylammonium acetate]", "condition not met"],
  ["O=C([O-])C(F)(F)F.[NH3+]CCCO [3-hydroxypropylammonium trifluoroacetate]", "condition met"]
]}

In the record for CC(=O)[O-].CCC[NH3+] [propylammonium acetate] , is surface tension liquid-gas less than 40 mN/m?
condition met
